system: miR-21; assay: miR-21 luciferase reporter (Luc-miR-21) screening assay in HeLa cells; type: cell-based, human; conditions: Homo sapiens; HeLa Luc-miR-21 reporter, concentration dependent; read-out: EC50 of increase of luciferase signal
Assay metric: EC50

*Q* Which measured EC50 value corresponds to C#CCNC(=O)c1ccc(/N=N/c2ccccc2)cc1 ?
*A* 2000 nM

###

tested on: miR-21; test: High throughput primary miR-21 FLuc reporter assay (concentration-response); type: cell-based, human; settings: HeLa Luc-miR-21 reporter, 48-hour incubation; read-out: AC50
Exam item: assign Met to entries whose AC50 is below 7 µM and Not met to entries at or above 7 µM. Note that a value of exactly 7 µM receives Not met.

Consider the following illustrative entries.
COC(=O)/C(=C/c1cccc([N+](=O)[O-])c1)NC(=O)c1ccc(OC)cc1    Met
Cc1ccc(C)c(-n2nnc(-c3nc(-c4ccc(Cl)cc4)no3)c2N)c1    Met

*Q* Would you kindly verify if AC50 of CC(=NNC(=O)c1ccoc1C)c1cccc2ccccc12 is strictly less than 7 µM?
*A* Not met

*Q* Check if AC50 falls below 7 µM for Nc1[nH]cnc2nc(SCC(=O)Nc3ccccc3F)nc1-2 .
*A* Not met

*Q* Is the reported AC50 for CC(C)c1ccc2nc(SCC(=O)NCC3CCCO3)c(C#N)cc2c1 (stereo not drawn) strictly below 7 µM?
*A* Met

*Q* Record COc1ccc2cc(OCC(=O)NNC(=O)Nc3ccc(C(C)=O)cc3)ccc2c1 : is its AC50 strictly below 7 µM?
*A* Not met

###

System: HEK293T (human embryonic kidney) cells
Test: Cell viability assay, HEK293T cells
Format: cell-based
Conditions: 10 μM Compound
From the text: In these assays, A172 cells (glioblastoma cells) were contacted with a miR-21 inhibitor either alone or in combination with a conventional antiproliferative agent (i.e., 5-fluorouracil or curcumin). At the concentrations indicated, no toxic effects on HEK293T (human embryonic kidney) cells were observed.
Assay metric: Cell Viability HEK293T Cells (%)
The answer is to be given in %; state only the numeric part.

COc1ccc2c(c1N)CCC1C2CC[C@]2(C)C(=O)CCC12 (stereo partly drawn)    86
C#CCNC(=O)c1ccc(NNc2ccccc2)cc1    95

Let's switch to this compound now.
*Q* GET /values?readout=Cell Viability HEK293T Cells&item= O=C1c2cc3c(cc2-c2[nH]c(=O)c4ccccc4c21)OCO3
*A* 79

###

# viability at 10 µM per entry
test system: A172 cells (glioblastoma cells); test: Cell viability assay, A172 cells, alone or with antiproliferative agent; format: cell-based; conditions: Homo sapiens, A 172; 10 μM Compound + 5FU 0.5 μM; read-out: Cell Viability A172 Cells, Compound + 5FU (0.5 μM)
Quick note: give the figure in %, leave out the unit.

// known answers, use as guide
C#CCNC(=O)c1ccc(/N=N/c2ccccc2)cc1    8
COc1ccc2c(c1[N+](=O)[O-])CCC1C2CC[C@]2(C)C(=O)CCC12 (stereo partly shown)    47
Cn1c2c(c3ccccc3c1=O)C(=O)c1cc3c(cc1-2)OCO3    62
COc1cc2c(cc1N)C1CC[C@]3(C)C(=O)CCC3C1CC2 (stereo partly shown)    78
O=C1c2cc3c(cc2-c2[nH]c(=O)c4ccccc4c21)OCO3    45

*Q* Any idea what viability at 10 µM was measured for COc1ccc2c(c1N)CCC1C2CC[C@]2(C)C(=O)CCC12 (stereo partly shown) ?
*A* 54

*Q* Using the record for C#CCNC(=O)c1ccc(NNc2ccccc2)cc1 , report its viability at 10 µM.
*A* 52

###

system: mature miR-21; test: Quantitative RT-PCR of mature miR-21; type: cell-based, human; settings: Table 2
Assay metric: miR-21 RT PCR* (% Decrease as compared to DMSO control) (%)
Response body: numeric value in %, unit text excluded.

C#CCNC(=O)c1ccc(NNc2ccccc2)cc1    39

*Q* Which miR-21 RT PCR* (% Decrease as compared to DMSO control) value belongs to C#CCNC(=O)c1ccc(/N=N/c2ccccc2)cc1 ?
*A* 22

*Q* Recorded miR-21 RT PCR* (% Decrease as compared to DMSO control) of COc1ccc2c(c1[N+](=O)[O-])CCC1C2CC[C@]2(C)C(=O)CCC12 (stereo partly shown) , please.
*A* 34

*Q* Suppose we examine the molecule Cn1c2c(c3ccccc3c1=O)C(=O)c1cc3c(cc1-2)OCO3 ; what miR-21 RT PCR* (% Decrease as compared to DMSO control) value has been reported?
*A* 12

###

Parameter: Cell Viability HEK293T Cells. Scope: all listed entries.
test system: HEK293T (human embryonic kidney) cells; assay: Cell viability assay, HEK293T cells; format: cell-based; details: 10 μM Compound
The answer is to be given in %; state only the numeric part.

Cn1c2c(c3ccccc3c1=O)C(=O)c1cc3c(cc1-2)OCO3    98
COc1cc2c(cc1N)C1CC[C@]3(C)C(=O)CCC3C1CC2 (some centres unmarked)    89

*Q* Quick one: Cell Viability HEK293T Cells of C#CCNC(=O)c1ccc(/N=N/c2ccccc2)cc1 ?
*A* 98

*Q* # lookup: Cell Viability HEK293T Cells of C[C@]12CC[C@@H]3c4ccc(O)cc4CC[C@H]3[C@@H]1CCC2=O [estrone, reference compound]
*A* 85

*Q* Could you share which Cell Viability HEK293T Cells value was measured for COc1ccc2c(c1[N+](=O)[O-])CCC1C2CC[C@]2(C)C(=O)CCC12 (some centres unmarked) ?
*A* 97
